# TARGET_OR_SYSTEM: DC-SIGN (Homo sapiens, UniProt Q9NNX6)
# Construct: The extracellular domains of lectin receptors, TREMs and TLTs were cloned by the reverse-transcriptase polymerase chain reaction (RT-PCR); made in house; host or cells: 293-F (FreeStyle 293) cells
# Sequence (Q9NNX6 59-404 limits assumed): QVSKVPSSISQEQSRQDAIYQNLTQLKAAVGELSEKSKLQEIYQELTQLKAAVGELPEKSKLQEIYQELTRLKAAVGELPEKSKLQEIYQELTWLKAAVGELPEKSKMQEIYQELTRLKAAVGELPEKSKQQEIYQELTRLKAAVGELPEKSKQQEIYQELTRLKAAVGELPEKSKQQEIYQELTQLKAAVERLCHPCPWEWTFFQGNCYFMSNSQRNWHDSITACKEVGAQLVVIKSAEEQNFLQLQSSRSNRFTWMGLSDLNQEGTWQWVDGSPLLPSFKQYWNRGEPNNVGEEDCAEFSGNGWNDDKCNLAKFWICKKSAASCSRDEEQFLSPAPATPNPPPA
# TEST_DESCRIPTION: Sugar competition EIA, Fc.DC-SIGN binding to GLPS-F3
# ASSAY_CONTEXT: sugar 1 mg/ml
Quick reference: inhibition of binding of Fc.DC-SIGN to GLPS-F3 of the listed items.
Report only the number, with the unit % understood.

compound O=C[C@@H](O)[C@@H](O)[C@H](O)[C@H](O)CO , inhibition of binding of Fc.DC-SIGN to GLPS-F3 observed: 72

compound O=C[C@H](O)[C@@H](O)[C@H](O)[C@H](O)CO , inhibition of binding of Fc.DC-SIGN to GLPS-F3 observed: 45

compound CC(=O)N[C@H]1C(O)O[C@H](CO)[C@@H](O)[C@@H]1O (some centres unmarked) , inhibition of binding of Fc.DC-SIGN to GLPS-F3 observed: 27

compound CC(=O)N[C@H]1[C@H]([C@H](O)[C@H](O)CO)OC(O)(C(=O)O)C[C@@H]1O (some centres unmarked) , inhibition of binding of Fc.DC-SIGN to GLPS-F3 observed: 90

compound C[C@H](O)[C@@H](O)[C@@H](O)[C@H](O)C=O , inhibition of binding of Fc.DC-SIGN to GLPS-F3 observed: 92

---

Quick reference: inhibition of interaction between GLPS-F3 and MMR.Fc of the listed items.
# TARGET_OR_SYSTEM: MMR.Fc (Homo sapiens, UniProt P22897)
# Construct: The extracellular domains of lectin receptors, TREMs and TLTs were cloned by the reverse-transcriptase polymerase chain reaction (RT-PCR); made in house; host or cells: 293-F (FreeStyle 293) cells
# Sequence (P22897 19-1389 limits assumed): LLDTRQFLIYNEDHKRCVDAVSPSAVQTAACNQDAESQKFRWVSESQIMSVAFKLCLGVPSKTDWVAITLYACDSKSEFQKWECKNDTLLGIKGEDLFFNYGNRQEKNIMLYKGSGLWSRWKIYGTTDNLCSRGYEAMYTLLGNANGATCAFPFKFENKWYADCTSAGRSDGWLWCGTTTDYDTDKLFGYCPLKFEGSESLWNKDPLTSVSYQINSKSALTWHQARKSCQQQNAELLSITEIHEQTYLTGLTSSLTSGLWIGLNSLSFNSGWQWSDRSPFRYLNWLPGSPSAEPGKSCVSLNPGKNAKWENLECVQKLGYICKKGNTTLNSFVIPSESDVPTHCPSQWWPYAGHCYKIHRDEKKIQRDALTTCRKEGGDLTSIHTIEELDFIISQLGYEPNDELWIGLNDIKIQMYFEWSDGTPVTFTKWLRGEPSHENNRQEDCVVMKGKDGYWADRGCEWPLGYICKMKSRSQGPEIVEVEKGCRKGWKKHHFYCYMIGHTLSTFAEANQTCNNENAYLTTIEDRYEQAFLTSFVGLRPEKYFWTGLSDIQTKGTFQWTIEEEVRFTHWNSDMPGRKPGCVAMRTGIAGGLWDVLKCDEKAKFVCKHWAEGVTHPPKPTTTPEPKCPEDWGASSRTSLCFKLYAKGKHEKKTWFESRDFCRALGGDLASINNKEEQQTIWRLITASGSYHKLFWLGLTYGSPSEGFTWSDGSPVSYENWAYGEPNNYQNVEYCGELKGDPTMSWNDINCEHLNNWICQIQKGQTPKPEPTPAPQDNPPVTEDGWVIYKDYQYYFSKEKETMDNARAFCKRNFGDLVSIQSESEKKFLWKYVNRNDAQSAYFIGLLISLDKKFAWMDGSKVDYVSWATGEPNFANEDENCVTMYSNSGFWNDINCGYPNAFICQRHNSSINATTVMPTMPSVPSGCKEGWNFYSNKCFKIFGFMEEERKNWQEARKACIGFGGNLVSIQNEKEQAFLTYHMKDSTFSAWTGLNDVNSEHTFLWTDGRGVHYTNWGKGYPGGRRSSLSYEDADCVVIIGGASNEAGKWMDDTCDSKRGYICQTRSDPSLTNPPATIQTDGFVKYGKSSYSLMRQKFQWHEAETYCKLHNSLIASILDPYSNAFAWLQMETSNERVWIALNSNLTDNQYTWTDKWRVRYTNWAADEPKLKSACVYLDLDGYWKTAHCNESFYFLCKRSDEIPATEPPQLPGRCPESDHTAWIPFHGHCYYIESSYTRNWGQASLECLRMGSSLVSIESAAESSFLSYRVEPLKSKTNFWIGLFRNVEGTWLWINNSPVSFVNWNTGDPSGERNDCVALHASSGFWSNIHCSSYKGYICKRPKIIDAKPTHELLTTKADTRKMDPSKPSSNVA
# TEST_DESCRIPTION: Sugar competition EIA, MMR.Fc binding to GLPS-F3
# ASSAY_CONTEXT: sugar 1 mg/ml
Report only the number, with the unit % understood.

COMPOUND | TARGET_OR_SYSTEM | RECORDED_VALUE
CC(=O)N[C@H]1C(O)O[C@H](CO)[C@@H](O)[C@@H]1O (stereo partly drawn) | MMR.Fc (Homo sapiens, UniProt P22897) | 78
O=C[C@H](O)[C@@H](O)[C@H](O)[C@H](O)CO | MMR.Fc (Homo sapiens, UniProt P22897) | 45
C[C@H](O)[C@@H](O)[C@@H](O)[C@H](O)C=O | MMR.Fc (Homo sapiens, UniProt P22897) | 88

O=C[C@@H](O)[C@@H](O)[C@H](O)[C@H](O)CO on MMR.Fc (Homo sapiens, UniProt P22897) gives inhibition of interaction between GLPS-F3 and MMR.Fc = 87

CC(=O)N[C@H]1[C@H]([C@H](O)[C@H](O)CO)OC(O)(C(=O)O)C[C@@H]1O (stereo partly drawn) on MMR.Fc (Homo sapiens, UniProt P22897) gives inhibition of interaction between GLPS-F3 and MMR.Fc = 93

O=C[C@H](O)[C@@H](O)[C@@H](O)[C@H](O)CO on MMR.Fc (Homo sapiens, UniProt P22897) gives inhibition of interaction between GLPS-F3 and MMR.Fc = 36
